systemUnderTest: T1, PACAP-R3 (human, UniProt P41587 24-438)
T1 sequence (looked up): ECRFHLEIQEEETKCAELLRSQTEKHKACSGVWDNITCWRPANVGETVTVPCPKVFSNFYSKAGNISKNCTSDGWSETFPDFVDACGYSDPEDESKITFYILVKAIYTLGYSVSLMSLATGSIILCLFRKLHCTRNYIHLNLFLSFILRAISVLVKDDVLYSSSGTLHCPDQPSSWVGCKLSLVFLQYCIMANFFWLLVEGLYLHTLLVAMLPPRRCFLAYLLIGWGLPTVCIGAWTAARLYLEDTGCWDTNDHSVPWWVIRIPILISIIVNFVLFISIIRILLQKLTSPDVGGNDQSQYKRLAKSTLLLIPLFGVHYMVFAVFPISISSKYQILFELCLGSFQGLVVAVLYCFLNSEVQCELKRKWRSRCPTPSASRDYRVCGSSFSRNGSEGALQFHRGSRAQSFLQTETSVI
methodDescription: cell-based or functional assay
Non-standard residues stand in square brackets, D forms with d. No end group written: not given here. Nle = CCCC[C@H](N)C(=O)O
So basically: is R3 Selectivity under 100 ratio? Then met. Not under? Then not met.

binder: HSDAVFTDNYTRLRKQMAAKKYLNSINNKR [R3P124]
qualitativeLabel: met
--
binder: HSDAVFTDNYTRLRKQMAQKKYLNSIKNKR [R3P108]
qualitativeLabel: met
--
binder: HSDAVFTDNYTRLRKQMAAKKYLNSICNKR [R3P116]
qualitativeLabel: met
--
binder: Ac-HSDAVFTENYTKLRKQLAAKKYLNDLKKGGT (ends and bridges not checked) [R3P2]
qualitativeLabel: not met
--
binder: HSDAVFTENYTRLRKQMAVKKYLNSLKK-NH2 [R3P7]
qualitativeLabel: met
--
binder: HSDAVFTDNYTRLRKQMAAKKYLNSIKNNR [R3P143]
qualitativeLabel: met
--
binder: Ac-HSDAVFTENYTKLRKQ[Nle]AAKKYLNDLKKGGT-NH2 [R3P0]
qualitativeLabel: not met
--
binder: HSDAVFTDQYTRLRKQLAAKKYLNTIKNKRY [R3P72]
qualitativeLabel: not met
--
binder: HSDAVFTDNYTRLRKQMAAKKYLNSIKNKN [R3P163]
qualitativeLabel: not met
--
binder: HSDAVFTDNYTRLRKQMAAKKYLNSIKNER [R3P136]
qualitativeLabel: met
--
binder: HSDAVFTDNYTRLRKQMAAKKYLNSIKNKG [R3P157]
qualitativeLabel: not met
--
binder: HSDAVFTDNYTRLRKQMAVKKYLNSIKKGGT [R3P9]
qualitativeLabel: met
--
binder: HSDAVFTDNYTRLRKQLAAKKYLNDIKKGGT [R3P12]
qualitativeLabel: not met
--
binder: HSDAVFTDNYTRLRKQMAAKKYLNSIKNMR [R3P142]
qualitativeLabel: met
--
binder: HSDAVFTDNYTRLRKQMAAKKYLNSIKKKRY [R3P52]
qualitativeLabel: not met
--
binder: HSDAVFTDNYTRLRKQMAAKKYLQSIKNKRY [R3P69]
qualitativeLabel: not met
--
binder: HSDAVFTDNYTRLRKQMAAKKYLNSIENKR [R3P118]
qualitativeLabel: met
--
binder: HSDAVFTDNYTRLRKQLAAKKYLNSIKNGGT [R3P30]
qualitativeLabel: met
--
binder: HSDAVFTDNYTRLRKQVAVKKYLQSIKNKRY [R3P82]
qualitativeLabel: met
--
binder: HSDAVFTDNYTRLRKQMAAKKYLNSIVNKR [R3P130]
qualitativeLabel: met
--
binder: HSDAVFTDQYTRLRKQLAAHKYLNTIKNKRY [R3P75]
qualitativeLabel: not met
